Assay: P. aeruginosa biofilm formation inhibitors, primary screen, strain PAO1, LB-PBS medium, absorbance 600 nm (AID 1176); also: test concentration not given here
Details: P. aeruginosa PAO1 growth/biofilm, A600, 12 h; higher = more signal
Given measured z-score, output label 1 if it is greater than or equal to 0.4 and label 0 if not.

INSERT INTO results (compound, category_label) VALUES
  ('Cc1ccc(F)cc1S(=O)(=O)N[C@@H]1CCN(Cc2ccc(-c3ccccc3)cc2)C1', 'label 1'),
  ('COC(=O)c1ccc(OC)c(/C=C\CC(OC(C)=O)c2ccccc2)c1 (stereo not given)', 'label 0'),
  ('O=C1OCC=C[C@H]2OC34C=CCN(c5ccc(Cl)cc5)C(=O)[C@H]3N(CCCCCCO)C(=O)[C@@H]4[C@@H]12 (stereo not given in full)', 'label 0'),
  ('CCCCC(O)C1C=CC2C(=O)N(C3CCCCC3)C(=O)C2N1Nc1ccc(OC)cc1 (stereo not given)', 'label 1'),
  ('O=C/C=C/c1ccc(Cl)cc1', 'label 1');
